Target: NPR-B (Mus musculus)
Construct: Murine NIH3T3 cells express endogenously the CNP signaling receptor, NPR-B; endogenous in cells; host or cells: NIH3T3 (murine fibroblasts)
Sequence (Q6VVW5 17-1047): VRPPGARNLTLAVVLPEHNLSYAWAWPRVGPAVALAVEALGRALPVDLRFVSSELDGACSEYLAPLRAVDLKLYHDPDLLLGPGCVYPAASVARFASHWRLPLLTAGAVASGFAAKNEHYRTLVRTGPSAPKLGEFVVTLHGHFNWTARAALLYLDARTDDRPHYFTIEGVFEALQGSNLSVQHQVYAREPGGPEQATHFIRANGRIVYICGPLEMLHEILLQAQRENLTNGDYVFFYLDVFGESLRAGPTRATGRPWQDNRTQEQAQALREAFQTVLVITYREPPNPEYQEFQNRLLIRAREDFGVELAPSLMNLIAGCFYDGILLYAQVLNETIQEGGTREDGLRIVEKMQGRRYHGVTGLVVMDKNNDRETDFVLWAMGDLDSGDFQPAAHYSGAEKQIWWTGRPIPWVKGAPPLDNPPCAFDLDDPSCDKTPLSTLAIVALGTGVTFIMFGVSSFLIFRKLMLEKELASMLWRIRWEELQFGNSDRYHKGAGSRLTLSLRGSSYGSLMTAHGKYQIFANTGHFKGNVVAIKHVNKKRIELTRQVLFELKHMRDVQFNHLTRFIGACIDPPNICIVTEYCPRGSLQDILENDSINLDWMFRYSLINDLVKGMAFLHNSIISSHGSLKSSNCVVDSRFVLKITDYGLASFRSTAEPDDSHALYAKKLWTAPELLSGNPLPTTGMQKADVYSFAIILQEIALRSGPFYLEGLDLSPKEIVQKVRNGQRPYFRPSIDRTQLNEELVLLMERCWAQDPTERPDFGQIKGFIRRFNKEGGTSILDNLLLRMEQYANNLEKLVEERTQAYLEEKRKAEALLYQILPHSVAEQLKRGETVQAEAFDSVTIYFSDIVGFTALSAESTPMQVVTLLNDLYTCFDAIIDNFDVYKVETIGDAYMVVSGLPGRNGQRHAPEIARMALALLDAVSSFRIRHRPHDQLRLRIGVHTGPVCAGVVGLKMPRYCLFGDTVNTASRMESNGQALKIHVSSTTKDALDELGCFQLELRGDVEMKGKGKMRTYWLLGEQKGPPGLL
Assay: Stimulation of cGMP production in NIH3T3 cells
Assay type: cell-based, Murine
Conditions: NIH3T3 cells; 10 nM natriuretic peptide; normalized to cell number and cGMP production with 1 uM wtCNP22; read-out: cGMP Response rel. to 1 uM CNP22, 10 nM
Readout: cGMP response relative to 1 uM CNP22 (%) at 0.01 µM
One number for each entry, in %.

Item under review: CC[C@H](C)[C@@H]1NC(=O)[C@H](CCCNC(=N)N)NC(=O)[C@H](CC(=O)O)NC(=O)[C@H](CC(C)C)NC(=O)[C@H](CCCCN)NC(=O)[C@H](CC(C)C)NC(=O)CNC(=O)[C@H](Cc2ccccc2)NC(=O)[C@@H](NC(=O)CNC(=O)[C@H](CCCCN)NC(=O)[C@H](CO)NC(=O)[C@H](CC(C)C)NC(=O)CNC(=O)CCOCCOCCOCCOCCOCCOCCOCCOCCOCCOCCOCCOC)CSSC[C@@H](C(=O)O)NC(=O)CNC(=O)[C@H](CC(C)C)NC(=O)CNC(=O)[C@H](CO)NC(=O)[C@H](CCSC)NC(=O)[C@H](CO)NC(=O)CNC1=O . Reported cGMP response relative to 1 uM CNP22 (%) at 0.01 µM?
12

====

Test: in vivo
Conditions: FVB/N, mouse, plasma, iv, 100 nmol/kg
Readout: half-life

Find the recorded half-life belonging to CC[C@H](C)[C@@H]1NC(=O)[C@H](CCCNC(=N)N)NC(=O)[C@H](CC(=O)O)NC(=O)[C@H](CC(C)C)NC(=O)[C@H](CCCCN)NC(=O)[C@H](CC(C)C)NC(=O)CNC(=O)[C@H](Cc2ccccc2)NC(=O)[C@@H](NC(=O)CNC(=O)[C@H](CCCCN)NC(=O)[C@H](CO)NC(=O)[C@H](CC(C)C)NC(=O)CN)CSSC[C@@H](C(=O)O)NC(=O)CNC(=O)[C@H](CC(C)C)NC(=O)CNC(=O)[C@H](CO)NC(=O)[C@H](CCSC)NC(=O)[C@H](CO)NC(=O)CNC1=O [CNP22, CNP-22] and report it.
45.6 to 61.8 s

====

Target: neutral endopeptidase (NEP) (Homo sapiens)
Sequence (P08473 whole entry): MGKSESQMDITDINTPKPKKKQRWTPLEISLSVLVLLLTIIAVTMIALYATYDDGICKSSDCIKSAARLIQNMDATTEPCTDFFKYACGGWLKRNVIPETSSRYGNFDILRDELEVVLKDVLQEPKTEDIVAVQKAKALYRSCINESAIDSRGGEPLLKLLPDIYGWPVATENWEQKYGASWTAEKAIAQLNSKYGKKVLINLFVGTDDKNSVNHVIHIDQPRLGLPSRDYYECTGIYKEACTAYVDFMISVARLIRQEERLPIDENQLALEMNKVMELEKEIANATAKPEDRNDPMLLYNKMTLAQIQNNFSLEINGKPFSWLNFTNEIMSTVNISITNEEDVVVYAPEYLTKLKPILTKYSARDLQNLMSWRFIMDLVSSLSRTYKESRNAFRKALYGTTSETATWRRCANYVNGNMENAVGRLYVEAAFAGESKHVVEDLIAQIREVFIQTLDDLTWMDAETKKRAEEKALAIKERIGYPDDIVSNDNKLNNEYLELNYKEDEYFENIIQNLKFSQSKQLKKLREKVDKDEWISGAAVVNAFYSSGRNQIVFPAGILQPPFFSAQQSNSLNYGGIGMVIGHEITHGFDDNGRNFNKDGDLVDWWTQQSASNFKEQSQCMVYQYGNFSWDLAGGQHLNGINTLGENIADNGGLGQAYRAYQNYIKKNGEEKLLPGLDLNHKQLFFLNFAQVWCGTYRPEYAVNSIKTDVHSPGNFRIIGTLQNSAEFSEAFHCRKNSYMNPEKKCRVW
Assay: In vitro neutral endopeptidase (NEP) cleavage assay
Conditions: human, pH 7
Experimental: To determine the effects of amino acid substitutions, amino acid extensions, backbone modifications, side chain modifications and PEGylation on the susceptibility of CNP variants to neutral endopeptidase (NEP) cleavage, peptide cleavage assays were carried out using an in vitro assay that monitored disappearance of the non-cleaved CNP variant. Recombinant human NEP (1 ug/mL final concentration) was added to 100 uM CNP variant diluted in 0.1 M Tris, pH 7. […]
Readout: half-life at 100 uM (h)
Answers are plain numbers, in h.

INSERT INTO measurements (molecule, readout, assay_value) VALUES
  ('CC[C@H](C)[C@@H]1NC(=O)[C@H](CCCNC(=N)N)NC(=O)[C@H](CC(=O)O)NC(=O)[C@H](CC(C)C)NC(=O)[C@H](CCCCN)NC(=O)[C@H](CC(C)C)NC(=O)CNC(=O)[C@H](Cc2cccc(Cl)c2)NC(=O)[C@@H](NC(=O)CNC(=O)[C@H](CCCCN)NC(=O)[C@H](CO)NC(=O)[C@H](CC(C)C)NC(=O)CN)CSSC[C@@H](C(=O)O)NC(=O)CNC(=O)[C@H](CC(C)C)NC(=O)CNC(=O)[C@H](CO)NC(=O)[C@H](CCSC)NC(=O)[C@H](CO)NC(=O)CNC1=O [G]', 'half-life at 100 uM', 2.25);

Let us move to another entry and its half-life at 100 uM.
Please give the measured half-life at 100 uM for this molecule: CC[C@H](C)[C@@H]1NC(=O)[C@H](CCCNC(=N)N)NC(=O)[C@H](CC(=O)O)NC(=O)[C@H](CC(C)C)NC(=O)[C@H](CCCCN)NC(=O)[C@H](CC(C)C)N(C)C(=O)CNC(=O)[C@H](Cc2ccccc2)NC[C@@H](NC(=O)CNC(=O)[C@H](CCCCN)NC(=O)[C@H](CO)NC(=O)[C@H](CC(C)C)NC(=O)CN)CSSC[C@@H](C(=O)O)NC(=O)CNC(=O)[C@H](CC(C)C)N(C)C(=O)CNC(=O)[C@H](CO)NC(=O)[C@H](CCSC)NC(=O)[C@H](CO)NC(=O)CNC1=O [J]
0.833

====

Biological target: NPR-B (Mus musculus)
Construct: Murine NIH3T3 cells express endogenously the CNP signaling receptor, NPR-B; endogenous in cells; host or cells: NIH3T3 (murine fibroblasts)
Assay: Stimulation of cGMP production in NIH3T3 cells
Format: cell-based, Murine
Conditions: NIH3T3 cells; 1 uM natriuretic peptide; normalized to cell number and cGMP production with 1 uM wtCNP22; read-out: cGMP Response rel. to 1 uM CNP22, 1 uM
Bridge positions count the residues as written; N and C are the ends. Peptide text beside a SMILES is read from it.
For each entry below, report its cGMP response relative to 1 uM CNP22 (%) at 1 µM value.
One number for each entry, in %.

INSERT INTO assay_data (compound, assay_value) VALUES
  ('CC[C@H](C)[C@@H]1NC(=O)[C@H](CCCNC(=N)N)NC(=O)[C@H](CC(=O)O)NC(=O)[C@H](CC(C)C)NC(=O)[C@H](CCCCN)NC(=O)[C@H]([C@@H](C)O)NC(=O)CNC(=O)[C@H](Cc2ccccc2)NC(=O)[C@@H](NC(=O)CNC(=O)[C@H](CCCNC(=N)N)NC(=O)[C@H](CO)NC(=O)[C@H](CC(C)C)NC(=O)CN)CSSC[C@@H](C(=O)O)NC(=O)CNC(=O)[C@H](CC(C)C)NC(=O)CNC(=O)[C@H](CO)NC(=O)[C@H](CCSC)NC(=O)[C@H](CO)NC(=O)CNC1=O [AD] (H-GLSRGCFGTKLDRIGSMSGLGC-OH; disulfide 6-22)', 68),
  ('CC[C@H](C)[C@@H]1NC(=O)[C@H](CCCNC(=N)N)NC(=O)[C@H](CC(=O)O)NC(=O)[C@H](CC(C)C)NC(=O)[C@H](CCCCN)NC(=O)[C@H](CC(C)C)NC(=O)CNC(=O)[C@H](Cc2ccccc2)NC(=O)[C@@H](NC(=O)CNC(=O)[C@H](CCCCN)NC(=O)[C@H](CO)NC(=O)[C@H](CC(C)C)NC(=O)CN)CSSC[C@@H](C(=O)O)NC(=O)CNC(=O)[C@H](CC(C)C)NC(=O)CNC(=O)[C@H](CO)NC(=O)[C@H](CCSC)NC(=O)[C@H](CO)NC(=O)CNC1=O', 100);

Turning to the following compound.
I am curious: what cGMP response relative to 1 uM CNP22 (%) at 1 µM value has been reported for CC[C@H](C)[C@@H]1NC(=O)[C@H](CCCNC(=N)N)NC(=O)[C@H](CC(=O)O)NC(=O)[C@H](CC(C)C)NC(=O)[C@H](CCCCN)NC(=O)[C@H](CC(C)C)NC(=O)CNC(=O)[C@H](Cc2ccccc2)NC(=O)[C@@H](N)CSSC[C@@H](C(=O)O)NC(=O)CNC(=O)[C@H](CC(C)C)NC(=O)CNC(=O)[C@H](CO)NC(=O)[C@H](CCSC)NC(=O)[C@H](CO)NC(=O)CNC1=O [AX] (H-CFGLKLDRIGSMSGLGC-OH; disulfide 1-17 (inferred); N-terminus and C-terminus assumed) ?
69

====

Please respond with reported cGMP response relative to 1 uM CNP22 (%) at 0.01 µM for every item in the list.
Target: NPR-B (Mus musculus)
Construct: Murine NIH3T3 cells express endogenously the CNP signaling receptor, NPR-B; endogenous in cells; host or cells: NIH3T3 (murine fibroblasts)
Experiment: Stimulation of cGMP production in NIH3T3 cells
Format: cell-based, Murine
Conditions: NIH3T3, […], read-out: cGMP Response rel. to 1 uM CNP22, 10 nM
Numbers only, in %.

Recorded results for 2 compounds are shown here.
INSERT INTO results (structure_notation, unit_text, assay_value) VALUES
  ('CC[C@@H](C)[C@H]1NC(=O)[C@@H](CCCNC(=N)N)NC(=O)[C@@H](CC(=O)O)NC(=O)[C@@H](CC(C)C)NC(=O)[C@@H](CCCCN)NC(=O)[C@@H](CC(C)C)NC(=O)CNC(=O)[C@@H](Cc2ccccc2)NC(=O)[C@H](NC(=O)CNC(=O)[C@@H](CCCCN)NC(=O)[C@@H](CO)NC(=O)[C@@H](CC(C)C)NC(=O)CN)CSSC[C@H](C(=O)O)NC(=O)CNC(=O)[C@@H](CC(C)C)NC(=O)CNC(=O)[C@@H](CO)NC(=O)[C@@H](CCSC)NC(=O)[C@@H](CO)NC(=O)CNC1=O', '%', 2),
  ('CC[C@H](C)[C@@H]1NC(=O)[C@H](CCCNC(=N)N)NC(=O)[C@H](CC(=O)O)NC(=O)[C@H](CC(C)C)NC(=O)[C@H](CCCCN)NC(=O)[C@H](CC(C)C)NC(=O)CNC(=O)[C@H](Cc2ccccc2)N(C)C(=O)[C@@H](NC(=O)CNC(=O)[C@H](CCCCN)NC(=O)[C@H](CO)NC(=O)[C@H](CC(C)C)NC(=O)CN)CSSC[C@@H](C(=O)O)NC(=O)CNC(=O)[C@H](CC(C)C)NC(=O)CNC(=O)[C@H](CO)NC(=O)[C@H](CCSC)NC(=O)[C@H](CO)NC(=O)CNC1=O', '%', 2);

Turning to the following compound.
Reported cGMP response relative to 1 uM CNP22 (%) at 0.01 µM for CC[C@H](C)[C@@H]1NC(=O)[C@H](CCCNC(=N)N)NC(=O)[C@H](CC(=O)O)NC(=O)[C@H](CC(C)C)NC(=O)[C@H](CCCCN)NC(=O)[C@H](CC(C)C)NC(=O)CNC(=O)[C@@H](Cc2ccccc2)NC(=O)[C@@H](NC(=O)CNC(=O)[C@H](CCCCN)NC(=O)[C@H](CO)NC(=O)[C@H](CC(C)C)NC(=O)CN)CSSC[C@@H](C(=O)O)NC(=O)CNC(=O)[C@H](CC(C)C)NC(=O)CNC(=O)[C@H](CO)NC(=O)[C@H](CCSC)NC(=O)[C@H](CO)NC(=O)CNC1=O : what is it?
2
